assay name: Pharmacokinetic profile of JJS-1-166 in mice (plasma, LC-MS)
Format: in vivo, C57Bl/6j mice
assay setup: C57Bl/6j, mouse, plasma, time point 24 h, individual animals; read-out: Drug concentration in the Plasma
reported endpoint: concentration at 24 h (ng/g)
API: value field is a number in ng/g; no unit string.

Data request: Returns the measured concentration at 24 h for the input compound. Input: CN1CCN(c2ccc3c(c2)[C@H]2CC3CCN2C(=O)OCc2ccccc2)CC1 [JJS-1-166]
Data returned: 0.14

----------
assay name: Blood brain barrier permeability / brain concentration and brain clearance of JJS-1-166 in mice
Assay type: in vivo, C57Bl/6j mice
assay setup: male, C57Bl/6j, mouse, brain, sc, 10 mg/kg, 3 hours after subcutaneous (SC) administration, 10 mg/kg, mouse; read-out: brain concentration
reported endpoint: concentration at 3 h
Provide a numeric answer, followed by its unit.

Data request: Returns the measured concentration at 3 h for the input compound. Input: CN1CCN(c2ccc3c(c2)[C@H]2CC3CCN2C(=O)OCc2ccccc2)CC1
Data returned: 15 ng/mL

The origin of these recorded values is patent US10450275B2.
